study-system: mbGIPC PDZ domain (Monosiga brevicollis GIPC homologue, original construct) (Monosiga brevicollis)
assay-remarks: fluorescence polarisation
parameter-measured: Ki

VEPKKSFDEI [decameric peptide matching the final 10 residues of the mbGIPC_(SFDEI) construct]; > 1000 µM

Data origin, for the record: paper doi:10.1101/2020.05.28.121053
